Values from patent US6362218B1

# Test system: DU-145
# test.method.notes: NCI human cancer cell line screen, antiproliferative activity, Prostate DU-145
# Assay type: cell-based
# conditions: concentration corresponding to 50% growth inhibition, read-out: cytotoxicity GI50, Prostate DU-145
readout: GI50 (nM)

> print(dat)
                                   compound  readout  result.units  result
1  CC1CCCC=CC2CC(O)CC2C(O)[C@H]([S+]([O-])CCO)CC(=O)O1 (stereo partly drawn) [Compound 15]     GI50            nM     260
2  COc1ccc(S[C@@H]2CC(=O)OC(C)CCCC=CC3CC(O)CC3C2O)cc1 (stereo partly drawn) [Compound 10]     GI50            nM   36000
3  CC1CCCC=CC2CC(O)CC2C(O)C([S+]([O-])C[C@H](N)C(=O)O)CC(=O)O1 (stereo partly drawn) [Compound 21]     GI50            nM     430

---

// values below are reported GI50
# Tested on: HOP-62
# test.method.notes: NCI human cancer cell line screen, antiproliferative activity, Lung HOP-62
# Format: cell-based
# conditions: concentration corresponding to 50% growth inhibition, read-out: cytotoxicity GI50, Lung HOP-62
readout: GI50 (nM)

> print(dat)
                                   molecule  readout  result
1  C[C@H]1CCC/C=C/[C@@H]2C[C@H](O)C[C@H]2[C@H](O)[C@H]([S+]([O-])c2ccc(O)cc2)CC(=O)O1 (stereo partly shown) [Compound 14]     GI50      88
2  CC1CCCC=CC2CC(O)CC2C(O)[C@H](Sc2ccc(O)cc2)CC(=O)O1 (stereo partly shown) [Compound 3]     GI50    3200
3  COc1ccc(S[C@@H]2CC(=O)OC(C)CCCC=CC3CC(O)CC3C2O)cc1 (stereo partly shown) [Compound 10]     GI50   24000
4  C[C@H]1CCC/C=C/[C@@H]2C[C@H](O)C[C@H]2[C@H](O)/C=C/C(=O)O1 [Compound 1, Brefeldin A]     GI50      70

---

// values below are reported GI50
# Test system: DU-145
# test.method.notes: NCI human cancer cell line screen, antiproliferative activity, Prostate DU-145
# Assay type: cell-based
# conditions: concentration corresponding to 50% growth inhibition, read-out: cytotoxicity GI50, Prostate DU-145
# Method: The new synthesized brefeldin A prodrug candidates and analogs were examined for antiproliferative activity against human cancer cell lines in the National Cancer Institute screen, in which the activity of each compound was evaluated with approximately 55 different cancer cell lines of diverse tumor origins.
readout: GI50 (µM)

> print(dat)
                                   compound  readout  result.units  censor.symbol  result
1  CC1CCCC=CC2CC(O)CC2C(O)[C@H](SCC(O)CO)CC(=O)O1 (stereo partly shown)     GI50            µM              =      18
2  CC1CCCC=CC2CC(O)CC2C(O)C(SCCO)CC(=O)O1 (stereo not shown)     GI50            µM              =      30
3  C[C@H]1CCC/C=C/[C@@H]2C[C@H](O)C[C@H]2[C@H](O)/C=C/C(=O)O1     GI50            µM              =    0.13
4  COC(=O)CSC1CC(=O)OC(C)CCCC=CC2CC(O)CC2C1O (stereo not shown)     GI50            µM              =      30
5  CC1CCCC=CC2CC(O)CC2C(O)C(O)C(O)C(=O)O1 (stereo not shown) [Compound 26, 2,3-Dihydro-2,3-dihydroxybrefeldin A]     GI50            µM              =     6.7
6  CC1CCCC=CC2CC(OC(=O)CCCC(=O)O)CC2C(OC(=O)CCCC(=O)O)C=CC(=O)O1 (stereo not shown) [Compound 25, Brefeldin A Diglutarate]     GI50            µM              >     100
7  C[C@H]1CCC/C=C/[C@@H]2C[C@H](O)C[C@H]2[C@@H](O)[C@H]([S+]([O-])CCN(C)C)CC(=O)O1 (stereo partly shown)     GI50            µM              =    0.48

---

# Tested on: SF-539
# test.method.notes: NCI human cancer cell line screen, antiproliferative activity, CNS SF-539
# Assay type: cell-based
# conditions: concentration corresponding to 50% growth inhibition, read-out: cytotoxicity GI50, CNS SF-539
readout: GI50 (µM)

> print(dat)
                                   molecule  readout  result.units  censor.symbol  result
1  C[C@H]1CCC/C=C/[C@@H]2C[C@H](O)C[C@H]2[C@H](O)/C=C/C(=O)O1 [Compound 1, Brefeldin A]     GI50            µM              =    0.04
2  CC1CCCC=CC2CC(OC(=O)CCCC(=O)O)CC2C(OC(=O)CCCC(=O)O)C=CC(=O)O1 (stereo not shown) [Compound 25, Brefeldin A Diglutarate]     GI50            µM              >     100
3  CC1CCCC=CC2CC(O)CC2C(O)[C@H](Sc2ccc(O)cc2)CC(=O)O1 (stereo partly shown) [Compound 3]     GI50            µM              =     5.1
4  CC1CCCC=CC2CC(O)CC2C(O)C(SCCN)CC(=O)O1 (stereo not shown) [Compound 9]     GI50            µM              =     4.9

---

# Test system: SN12C
# test.method.notes: NCI human cancer cell line screen, antiproliferative activity, Renal SN12C
# Assay type: cell-based
# conditions: concentration corresponding to 50% growth inhibition, read-out: cytotoxicity GI50, Renal SN12C
Strictly below 4 µM in GI50: t. Otherwise: f.

compound	group.label
CC1CCCC=CC2CC(O)CC2C(O)[C@H](SCC(O)CO)CC(=O)O1 (some centres unmarked)	f
CC1CCCC=CC2CC(O)CC2C(O)[C@H](Sc2ccc(O)cc2)CC(=O)O1 (some centres unmarked)	f
CC1CCCC=CC2CC(O)CC2C(O)[C@H]([S+]([O-])CCO)CC(=O)O1 (some centres unmarked)	t
CC1CCCC=CC2CC(O)CC2C(O)[C@H]([S+]([O-])CCN)CC(=O)O1 (some centres unmarked)	t
CC1CCCC=CC2CC(O)CC2C(O)C(O)C(O)C(=O)O1 (centres unmarked) [Compound 26, 2,3-Dihydro-2,3-dihydroxybrefeldin A]	t
CC1CCCC=CC2CC(O)CC2C(O)C(SCCO)CC(=O)O1 (centres unmarked)	f
COC(=O)CSC1CC(=O)OC(C)CCCC=CC2CC(O)CC2C1O (centres unmarked)	f
C[C@H]1CCC/C=C/[C@@H]2C[C@H](OC(=O)CCC(=O)O)C[C@H]2[C@H](OC(=O)CCC(=O)O)/C=C/C(=O)O1 [Compound 24, Brefeldin A Disuccinate]	f

---

# System: OVCAR-3
# test.method.notes: NCI human cancer cell line screen, antiproliferative activity, Ovarian OVCAR-3
# Format: cell-based
# conditions: concentration corresponding to 50% growth inhibition, read-out: cytotoxicity GI50, Ovarian OVCAR-3

compound	result.units	censor.symbol	GI50
CC1CCCC=CC2CC(OC(=O)CCCC(=O)O)CC2C(OC(=O)CCCC(=O)O)C=CC(=O)O1 (centres unmarked) [Compound 25, Brefeldin A Diglutarate]	µM	>	100
CC1CCCC=CC2CC(O)CC2C(O)C(O)C(O)C(=O)O1 (centres unmarked) [Compound 26, 2,3-Dihydro-2,3-dihydroxybrefeldin A]	µM	=	2.4
CC1CCCC=CC2CC(O)CC2C(O)[C@H]([S+]([O-])CCN)CC(=O)O1 (some centres unmarked)	µM	=	0.082
CC1CCCC=CC2CC(O)CC2C(O)C(SCCN)CC(=O)O1 (centres unmarked)	µM	=	2.2
C[C@H]1CCC/C=C/[C@@H]2C[C@H](OC(=O)CCC(=O)O)C[C@H]2[C@H](OC(=O)CCC(=O)O)/C=C/C(=O)O1 [Compound 24, Brefeldin A Disuccinate]	µM	>	100
COC(=O)CS(=O)(=O)[C@@H]1CC(=O)OC(C)CCCC=CC2CC(O)CC2C1O (some centres unmarked)	µM	=	3.2
COc1ccc(S[C@@H]2CC(=O)OC(C)CCCC=CC3CC(O)CC3C2O)cc1 (some centres unmarked)	µM	=	22
CC1CCCC=CC2CC(O)CC2C(O)[C@H]([S+]([O-])CCO)CC(=O)O1 (some centres unmarked)	µM	=	0.19
COC(=O)CSC1CC(=O)OC(C)CCCC=CC2CC(O)CC2C1O (centres unmarked)	µM	=	27
C[C@H]1CCC/C=C/[C@@H]2C[C@H](O)C[C@H]2[C@H](O)[C@H]([S+]([O-])c2ccc(O)cc2)CC(=O)O1 (some centres unmarked)	µM	=	0.025
C[C@H]1CCC/C=C/[C@@H]2C[C@H](O)C[C@H]2[C@@H](O)[C@H]([S+]([O-])CCN(C)C)CC(=O)O1 (some centres unmarked)	µM	=	0.14
CC1CCCC=CC2CC(O)CC2C(O)C([S+]([O-])C[C@H](N)C(=O)O)CC(=O)O1 (some centres unmarked)	µM	=	0.039
CC1CCCC=CC2CC(O)CC2C(O)[C@H](Sc2ccc(O)cc2)CC(=O)O1 (some centres unmarked)	µM	=	2.4
CC1CCCC=CC2CC(O)CC2C(O)[C@H](CC(=O)O)CC(=O)O1 (some centres unmarked)	µM	=	30
CC1CCCC=CC2CC(O)CC2C(O)C(SCCO)CC(=O)O1 (centres unmarked)	µM	=	27
CC1CCCC=CC2CC(O)CC2C(O)[C@H](SCC(O)CO)CC(=O)O1 (some centres unmarked)	µM	=	22
C[C@H]1CCC/C=C/[C@@H]2C[C@H](O)C[C@H]2[C@H](O)/C=C/C(=O)O1	µM	=	0.032
